target: Human COX-2 (Homo sapiens, UniProt P35354); construct: A 2.0 kb fragment containing the coding region of either human or murine COX-1 or human or murine COX-2; made in house; host or cells: SF9 insect cells (baculovirus, transfer vector pVL1393); assay: Assay for COX-1 and COX-2 activity (PGE2 ELISA, recombinant enzyme), COX-2; type: biochemical; details: Table I; pre-incubated 10-20 minutes, arachidonic acid 10 μM, stopped after ten minutes, pH 8.0
Sequence (P35354 18-604): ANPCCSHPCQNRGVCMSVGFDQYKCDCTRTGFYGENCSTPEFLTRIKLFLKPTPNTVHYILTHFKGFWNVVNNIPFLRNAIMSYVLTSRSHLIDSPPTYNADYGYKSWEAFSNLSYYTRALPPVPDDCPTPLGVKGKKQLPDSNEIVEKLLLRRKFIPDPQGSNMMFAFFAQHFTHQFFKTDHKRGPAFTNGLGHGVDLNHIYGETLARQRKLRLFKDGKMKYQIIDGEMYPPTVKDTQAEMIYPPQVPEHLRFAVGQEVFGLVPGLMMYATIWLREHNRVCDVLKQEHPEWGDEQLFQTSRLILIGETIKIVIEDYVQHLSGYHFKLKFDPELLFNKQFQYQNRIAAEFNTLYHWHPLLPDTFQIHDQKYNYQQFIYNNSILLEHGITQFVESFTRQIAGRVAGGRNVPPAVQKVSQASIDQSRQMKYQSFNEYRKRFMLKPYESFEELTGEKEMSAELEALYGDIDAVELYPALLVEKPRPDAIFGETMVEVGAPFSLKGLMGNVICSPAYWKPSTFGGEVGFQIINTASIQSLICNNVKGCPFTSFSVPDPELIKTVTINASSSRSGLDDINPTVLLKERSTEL
One threshold, 200 nM, splits the recorded IC50 values: lower ones are true (1), equal or higher ones are false (0).

molecule	label
CS(=O)(=O)c1ccc(-c2cscc2-c2ccccc2)cc1F [Example 2]	true (1)
CS(=O)(=O)c1ccc(-c2cc(C(F)(F)F)nn2C2CCCCC2)cc1F [Example 12]	true (1)
COc1ccccc1-c1cc(C(F)(F)F)nn1-c1ccc(S(N)(=O)=O)c(F)c1 [Example 9]	false (0)

Below 200 nM on IC50? Entry Cc1ccc(-c2cc(C(F)(F)F)nn2-c2ccc(S(N)(=O)=O)c(F)c2)cc1 [Example 4]
true (1)

Item: CS(=O)(=O)c1ccc(-c2cc(C(F)(F)F)nn2-c2ccc(F)cc2)cc1F [Example 11]
true (1)

Repeat with CS(=O)(=O)c1ccc(-c2cc(C(F)(F)F)nn2-c2cccc(C(F)(F)F)c2)cc1F [Example 13]
true (1)

Follow-up item: NS(=O)(=O)c1ccc(-c2cscc2-c2ccccc2)cc1F [Example 1]
true (1)

How about CS(=O)(=O)c1ccc(-c2cc(C(F)(F)F)nn2-c2ccc(C#N)cc2)cc1F [Example 16] ?
false (0)

Item: COc1ccc(-c2cc(C(F)(F)F)nn2-c2ccc(S(N)(=O)=O)c(F)c2)cc1 [Example 7]
true (1)

* * *

biological target: Human COX-1 (Homo sapiens); construct: A 2.0 kb fragment containing the coding region of either human or murine COX-1 or human or murine COX-2; made in house; host or cells: SF9 insect cells (baculovirus, transfer vector pVL1393); experiment: Assay for COX-1 and COX-2 activity (PGE2 ELISA, recombinant enzyme), COX-1; type: biochemical; details: Table I; pre-incubated 10-20 minutes, arachidonic acid 10 μM, stopped after ten minutes, pH 8.0
Sequence (P23219 24-599): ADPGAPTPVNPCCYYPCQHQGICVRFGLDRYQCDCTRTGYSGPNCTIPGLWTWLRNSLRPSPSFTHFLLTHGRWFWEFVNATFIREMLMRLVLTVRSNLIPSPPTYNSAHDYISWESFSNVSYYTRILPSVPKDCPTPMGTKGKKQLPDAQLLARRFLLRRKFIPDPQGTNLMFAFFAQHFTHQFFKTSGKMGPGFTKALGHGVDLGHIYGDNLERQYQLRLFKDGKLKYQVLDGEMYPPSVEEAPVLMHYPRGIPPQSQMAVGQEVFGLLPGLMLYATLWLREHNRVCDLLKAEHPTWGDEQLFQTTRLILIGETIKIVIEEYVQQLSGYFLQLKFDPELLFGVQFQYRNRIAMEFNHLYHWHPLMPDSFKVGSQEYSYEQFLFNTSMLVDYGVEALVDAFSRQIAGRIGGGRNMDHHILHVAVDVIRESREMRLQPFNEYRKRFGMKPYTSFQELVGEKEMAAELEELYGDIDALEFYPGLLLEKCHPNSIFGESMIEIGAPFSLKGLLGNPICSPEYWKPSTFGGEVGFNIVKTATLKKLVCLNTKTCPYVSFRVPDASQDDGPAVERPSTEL
In this section we review reported IC50 values for a set of molecules.

Here is how some molecules turned out for IC50.
CS(=O)(=O)c1ccc(-c2cc(C(F)(F)F)nn2-c2ccc(C#N)cc2)cc1F > 100 µM
CS(=O)(=O)c1ccc(-c2cc(C(F)F)nn2-c2cccc(C(F)(F)F)c2)cc1F > 100 µM

Would you kindly look at the next entry?
Look up IC50: CS(=O)(=O)c1ccc(-c2cc(C(F)(F)F)nn2-c2ccc(OC(F)(F)F)cc2)cc1F
> 100 µM
